procedure details: Cmax in C57Bl/6 mouse at 10 mg/kg, po administered as single dose via gavage by LC-MS/MS analysis
Assay type: ADME, organism-based
Set-up: dose 10 mg/kg, route oral
experimental setup: in vivo
Measured Cmax accompanies every entry in the list below.
Please state the figure in µM; there is no need to write the unit.

>>> measured_number("C[C@]12C[C@@]34C=CC(=O)[C@@](C)(CCC(=O)Nc5c(O)ccc(C(=O)O)c5O)[C@@H]3[C@H](C[C@@H]1C4)O2")
2.1

# context switch: different molecule, same Cmax
## Input Give its Cmax value. Item: C=C1C[C@@]23C=CC(=O)[C@@](C)(CCC(=O)Nc4c(O)ccc(C(=O)O)c4O)[C@@H]2C[C@@H]1CC3
## Output 4
